Biological target: T1, human galectin-10-His (human)
T1 construct: The last M of the tag may be Met1 of galectin-10; also called humanGal10-His; hGal10
T1 chain: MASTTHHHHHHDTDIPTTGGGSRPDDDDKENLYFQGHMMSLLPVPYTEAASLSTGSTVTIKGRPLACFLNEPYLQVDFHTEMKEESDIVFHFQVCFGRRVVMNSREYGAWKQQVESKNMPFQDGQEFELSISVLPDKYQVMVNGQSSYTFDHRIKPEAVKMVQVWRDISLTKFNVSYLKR
Test: SPR Biacore T3000, scFv-human Fc captured
Measured attribute: kon (M⁻¹ s⁻¹)
Provide only the numeric value, understood in M⁻¹ s⁻¹.

For 10D02 scFv-human Fc (Fc fusion, also called 010D02; not shown: CH2-CH3 constant domains of human IgG1 (pUPEX50 scFv-Fc fusion vector)) scFv: EVQLVESGGGLVQPGGSLRVSCAASGFTFSSYYMSWVRQAPGKGLEWVSGIVTGGGRTHYTDSVKGRFTITRDNAKNTLYLQMNSLRPEDTALYYCARVNGVVTNYDYWGQGTQVTVSSGGGGSGGGGSGGGGSQAVLTQPPSVSGSPGKTVTISCAGTSSDVGYGNYVSWYQQLPGMAPKLLIYDVNKRASGITDRFSGSKSGNTASLTISGLQSEDEADYFCASYRSPNNVVFGQGTHLTVL the binder record lists kon as 340000

For 11F12 scFv-human Fc (Fc fusion, also called 011F12; not shown: CH2-CH3 constant domains of human IgG1 (pUPEX50 scFv-Fc fusion vector)) scFv: QVQLQESGGGLVQPGGSLRLSCAASGFTFSTNYMNWVRQAPGKGLEWVSGITSGGGRTYYADSVKGRFTISRDNAKNTLYLQMNSLKPEDTALYYCARTDHAWLDAWGQGTLVTVSSGGGGSGGGGSGGGGSHSAVTQPPSVSGTLGKTVTISCAGTSSDVGYGNYVSWYQHLPGTAPKLLIYAVSTRASGVPDRFSGSKSGNTASLTISGLQSEDEGDYYCASYSVRNNVVFGGGTRLTVL the binder record lists kon as 320000

For 8H11 scFv-human Fc (Fc fusion, also called 008H11; not shown: CH2-CH3 constant domains of human IgG1 (pUPEX50 scFv-Fc fusion vector)) scFv: ELQLVESGGGLVQPGGSLRLSCAASGFTFSTNYMNWVRQAPGKGLEWVSGITSGGGRTYYADSVKGRFTISRDNAKNTLYLQMNSLKPEDTALYYCARTDHAWLDAWGQGTLVTVSSGGGGSGGGGSGGGGSQAGLTQPPSVSGTLGKTVTISCAGTSSDVGYGNYVSWYQQLPGTAPKLLIYAVSTRASGIPDRFSGSKSGNTASLTISGLLSEDEADYYCASYRSSNNYVFGGGTKLTVL the binder record lists kon as 453000
